Hello, the source for this data is patent US20250171542A1, in case you need it.

molecular target: T1, cynomolgus PD-L1-His (Sino Biological, Cat. 90251-C08H) (cynomolgus, UniProt Q9NZQ7 19-238 (human entry)); assay: BLI (Gator), cynomolgus PD-L1
T1 construct: Bought protein; also called Cyno PD-L1; Cynomolgus PD-L1 ECD-His; not shown: His tag
T1 sequence (Q9NZQ7 other isoform, or with tags, fused parts or gaps C08H C08H limits assumed): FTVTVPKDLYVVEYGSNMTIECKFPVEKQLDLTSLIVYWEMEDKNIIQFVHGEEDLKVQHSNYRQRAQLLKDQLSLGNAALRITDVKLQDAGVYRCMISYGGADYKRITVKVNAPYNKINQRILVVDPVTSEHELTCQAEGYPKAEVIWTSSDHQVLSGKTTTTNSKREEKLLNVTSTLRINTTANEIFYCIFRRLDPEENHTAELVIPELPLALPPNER
readout: kon (M⁻¹ s⁻¹)
# value in M⁻¹ s⁻¹; strip the unit string

{"columns": ["binder", "kon / M⁻¹ s⁻¹"],
 "data": [
  ["32E2 (antibody, human IgG1, V domains shown) VH: QEQLEESGGDLVKPEGSLTLTCTASGFSFSSSYYMSWVRQAPGMGLEWIASISGGVTDNAYYASWAKGRFTVSKTSSTTVTLQLTSLTAADTATYFCARDSSSGYFFLLWGPGTLVTVSS VL: LVMTQTPSSVSAAVGGTVTINCQASQNIYSNLAWYQQKPGQRPKLLIFGASNLRSGVPSRFKGSGSGTEYTLTISDLECADAATYYCQEGYSIGNVDNPFGGGTEVVVK", 133000]
]}

// next entry
## Input kon for 33H7 (antibody, human IgG1, V domains shown) VH: QEQLVESGGGLVQPEGSLTVTCTASGFDLSRYFYMSWVRQAPGKGLEWIASISTGSDITDYASWAKGRFTISKTSSTTVTLQMTTLTAADTAIYFCARWTSGGGGFGLWGPGTLVTVSS VL: QVLTQTASPVSAAVGGTVTLNCQSSQSIYNNYLSWYQQRAGQPPKLLIYSTATLASGVPSRFKGSGSGTQFTLTISEIQCEDAATYYCQGYYSGYIWTFGGGTEVVVK ?
## Output 350000
